Kindly supply the reported Inhibition values for the records listed here.
system: Plasmodium falciparum; assay: GSK_TCMDC: Inhibition of Plasmodium falciparum Dd2 in whole red blood cells, using parasite LDH activity as an index of growth. Test compounds present at 2uM; format: functional
Remember to quote the unit after the number.

Respectfully, I request Inhibition for each entry included below.
1. COC(=O)c1cccc(CNCc2cccc(-c3ccc(-c4nc5ccccc5[nH]4)s3)c2)c1.O=C(O)C(F)(F)F
2. C=CCc1cc(Cc2cnc(N)nc2N)c2ccc(C)nc2c1OC
3. COc1c(C2CCN(CCCCNC(=O)c3cc(-c4ccc(Cl)cc4)sc3C)CC2)ccc2c1CCCC2
4. CC[C@@H]([C@@H](CC(C)C)C(=O)N[C@@H](CCCCNC(=O)OCc1ccccc1)C(=O)Nc1ccccn1)N(O)C=O
5. COc1ccc(-c2ccc(NC(=O)c3cccc(Cl)c3)cc2)cc1CN(C)CCN(C)C.O=C(O)C(F)(F)F
6. COc1ccc(NC(=O)/C=C/c2ccccc2Cl)cc1OCCN1CCC(Cc2cc3ccccc3[nH]2)CC1.Cl

Key:
1. 59%
2. 0%
3. 65%
4. 99%
5. 35%
6. 8%

Provide reported Inhibition for each item, in the same order as listed.
1. COc1ccc(S(=O)(=O)NCC2CCCN(CCCCCNC(=O)/C=C/c3ccc(Cl)c(Cl)c3)C2)cc1 (stereo not drawn)
2. C[C@H](Cc1ccc(OCCCOc2ccc(C[C@@H](C)NC[C@H](O)c3cccc(Cl)c3)cc2)cc1)NC[C@H](O)c1cccc(Cl)c1.Cl
3. Cc1cccc2nc(-c3cccc(-c4cccc(CNCc5ccccc5)c4)c3)[nH]c12.O=C(O)C(F)(F)F
4. CC(C)(C)c1ccc(NC(=O)c2cccc(CN3CCCN(Cc4cccc(C#N)c4)CC3)c2)cc1.O=C(O)C(F)(F)F
5. CCNc1cc(C(=O)N[C@@H](Cc2ccccc2)[C@H](O)CNC2(CC(C)C)CC2)cc(N2CCCCS2(=O)=O)c1.Cl
6. CC(C)CC(=O)NC1CCN(Cc2c(-c3cccs3)nc3ccccc3c2C(=O)N[C@@H](C)C2CCCCC2)CC1
7. COc1ccccc1C1CCN(Cc2csc(NC(=O)c3ccc(-c4ccc(C(F)(F)F)cc4)cc3)n2)CC1
8. Clc1nc2ccccn2c1C=Cc1ccc2ccccc2n1

Key:
["1%", "92%", "56%", "12%", "29%", "97%", "23%", "75%"]
